molecular target: T1, human ROR1 (hROR1) on cells (human, UniProt Q01973 30-937); experiment: flow cytometry (FACS) on HEK293T-hROR1 cells, antibody 0.01-100 nM, median fluorescence intensity
T1 construct: whole, on cells; the cell line is named under assay; also called HEK293T-hROR1; 293T-hROR1
T1 sequence (Q01973 30-937): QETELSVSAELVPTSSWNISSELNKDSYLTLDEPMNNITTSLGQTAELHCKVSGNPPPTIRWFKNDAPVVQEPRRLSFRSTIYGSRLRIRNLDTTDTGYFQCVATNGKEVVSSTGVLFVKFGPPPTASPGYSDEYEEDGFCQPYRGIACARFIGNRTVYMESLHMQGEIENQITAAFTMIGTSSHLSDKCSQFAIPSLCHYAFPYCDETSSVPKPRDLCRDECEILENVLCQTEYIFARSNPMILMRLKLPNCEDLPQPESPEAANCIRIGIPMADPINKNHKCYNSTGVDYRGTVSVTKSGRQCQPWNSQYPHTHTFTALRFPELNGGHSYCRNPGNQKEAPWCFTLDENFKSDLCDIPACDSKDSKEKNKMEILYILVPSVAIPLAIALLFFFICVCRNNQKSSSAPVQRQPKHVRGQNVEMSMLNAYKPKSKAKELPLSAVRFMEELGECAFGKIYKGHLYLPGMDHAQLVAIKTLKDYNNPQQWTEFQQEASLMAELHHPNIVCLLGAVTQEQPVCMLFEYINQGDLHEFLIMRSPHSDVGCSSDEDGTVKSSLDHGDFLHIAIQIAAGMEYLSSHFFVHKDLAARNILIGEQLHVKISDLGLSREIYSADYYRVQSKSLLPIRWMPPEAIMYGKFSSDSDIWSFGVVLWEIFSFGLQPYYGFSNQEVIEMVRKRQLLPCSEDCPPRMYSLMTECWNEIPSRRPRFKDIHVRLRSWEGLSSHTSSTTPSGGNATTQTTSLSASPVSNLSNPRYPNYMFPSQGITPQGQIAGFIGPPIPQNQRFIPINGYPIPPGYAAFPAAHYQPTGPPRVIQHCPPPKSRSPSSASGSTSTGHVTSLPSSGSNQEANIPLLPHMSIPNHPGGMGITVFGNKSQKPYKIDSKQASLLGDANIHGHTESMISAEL

Binder	EC50 (read off the curve)
Positive control antibody (PR000374) (antibody, human IgG1, kappa, V domains shown) VH: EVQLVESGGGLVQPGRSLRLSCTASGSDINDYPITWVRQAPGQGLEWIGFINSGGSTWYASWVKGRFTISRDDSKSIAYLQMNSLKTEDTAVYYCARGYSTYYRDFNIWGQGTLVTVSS VL: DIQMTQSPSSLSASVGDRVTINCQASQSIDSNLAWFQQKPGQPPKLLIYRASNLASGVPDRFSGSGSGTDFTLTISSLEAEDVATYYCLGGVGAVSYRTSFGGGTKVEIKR	~9 nM
PR001415 (antibody, human IgG1, kappa, V domains shown, fully human IgG1, kappa) VH: EVQLVESGGGVVQPGRSLRLSCAASGFTFSNSGMHWVRQAPGKGLEWVAIMWYDGSNKDYADSVKGRFTISRDTSKNTLYLQMNSLRAEDTAVYYCAREQARSFDLWGRGTLVTVSS VL: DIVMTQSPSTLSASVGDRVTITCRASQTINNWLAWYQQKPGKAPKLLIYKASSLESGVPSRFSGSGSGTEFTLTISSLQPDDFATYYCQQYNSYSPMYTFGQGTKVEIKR	~3 nM
PR001418 (antibody, human IgG1, kappa, V domains shown, fully human IgG1, kappa) VH: QVQLVESGGGVVQPGRSLRLSCAASGFTFSSYGMHWVRQAPGKGLEWVAVIWYDGSDKDYADSVKGRFTISRDTSKNTLYLQMNSLRAEDTAVYYCAREQARSFDLWGRGTLVTVSS VL: DIVMTQSPSTLSASVGDRVTITCRASQTINNWLAWYQQKPGKAPKLLIYKASSLESGVPSRFSGSGSGTEFTLTISSLQPDDFATYYCQQYNSYSPMYTFGQGTKLEIKR	~3 nM
